Where these numbers come from: ChEMBL document CHEMBL3804769

test: Selectivity index, ratio of CC50 for human A549 cells to MIC99 for Pseudomonas aeruginosa PAO1 ATCC 47085; format: toxicity, cell-based; details: read-out: Selectivity Index
measurement_label: selectivity ratio
No unit in the answer, only the number.

Can you share its selectivity ratio? I mean this compound: "Cl.Cl.S=C(NCCCNCCCCCNCCCNC(=S)NCC(c1ccccc1)c1ccccc1)NCC(c1ccccc1)c1ccccc1"
8

* * *

system: Pseudomonas aeruginosa; assay: Antibacterial activity against Pseudomonas aeruginosa PAO1 ATCC 47085 incubated overnight by microbroth dilution method; format: functional
Reported values of MIC99 for individual entries

Can you share its MIC99? I mean this molecule: NCCCNCCCCNCCCN [SPERMINE]
> 512 µg/mL

Can you share its MIC99? I mean this molecule: "S=C(NCCCNCCCCNCCCNC(=S)NCCC(c1ccccc1)c1ccccc1)NCCC(c1ccccc1)c1ccccc1"
29.2 µg/mL

Can you share its MIC99? I mean this molecule: "Cl.Cl.O=C(NCCCNCCCCCNCCCNC(=O)Nc1ccccc1)Nc1ccccc1"
> 256 µg/mL

Can you share its MIC99? I mean this molecule: "S=C(NCCCNCCCCNCCCNC(=S)NC(c1ccccc1)c1ccccc1)NC(c1ccccc1)c1ccccc1"
10.4 µg/mL

* * *

test: Selectivity index, ratio of CC50 for HEK293T/17 cells to MIC99 for Staphylococcus aureus RN4220 ATCC 35556; format: toxicity, cell-based; conditions: human, read-out: Selectivity Index
measurement_label: selectivity ratio

Can you share its selectivity ratio? I mean this compound: "Cl.Cl.S=C(NCCCNCCCCCNCCCNC(=S)NCC(c1ccccc1)c1ccccc1)NCC(c1ccccc1)c1ccccc1"
16

* * *

experiment: Selectivity index, ratio of CC50 for human A549 cells to MIC99 for Staphylococcus aureus RN4220 ATCC 35556; type: toxicity, cell-based; settings: read-out: Selectivity Index
measurement_label: selectivity ratio

Can you share its selectivity ratio? I mean this compound: "Cl.Cl.S=C(NCCCNCCCCCNCCCNC(=S)NCC(c1ccccc1)c1ccccc1)NCC(c1ccccc1)c1ccccc1"
32

* * *

system: Pseudomonas aeruginosa; test: Antibacterial activity against Pseudomonas aeruginosa PAO1 ATCC 47085 incubated overnight by microbroth dilution method; type: functional
Reported values of MIC99 for individual entries
Entry rule: numbers only, all in µg/mL.

Lab note: need MIC99 for "Cl.Cl.S=C(NCCCNCCCCCNCCCNC(=S)NCc1ccccc1)NCc1ccccc1" on Pseudomonas aeruginosa, anyone have it?
256

Lab note: need MIC99 for "Cl.Cl.O=C(NCCCNCCCCCNCCCNC(=O)NCC(c1ccccc1)c1ccccc1)NCC(c1ccccc1)c1ccccc1" on Pseudomonas aeruginosa, anyone have it?
26.7

* * *

experiment: Hemolytic activity in human RBC after 1 hr; assay type: ADME, cell-based, Erythrocyte; conditions: red blood cells
measurement_label: HC50 at 1 h (µg/mL)
Entry rule: numbers only, all in µg/mL.

Can you share its HC50 at 1 h? I mean this molecule: "Cl.Cl.S=C(NCCCNCCCCCNCCCNC(=S)NCC(c1ccccc1)c1ccccc1)NCC(c1ccccc1)c1ccccc1"
64

* * *

test: Cytotoxicity against human A549 cells after 48 hrs by MTS conversion assay; format: cell-based
measurement_label: CC50 at 48 h (µg/mL)
Entry rule: numbers only, all in µg/mL.

Can you share its CC50 at 48 h? I mean this compound: "Cl.Cl.S=C(NCCCNCCCCCNCCCNC(=S)NCC(c1ccccc1)c1ccccc1)NCC(c1ccccc1)c1ccccc1"
64

* * *

test system: Pseudomonas aeruginosa; experiment: Antibacterial activity against Pseudomonas aeruginosa PAO1 ATCC 47085 incubated overnight by microbroth dilution method; type: functional
measurement_label: MIC99 (µg/mL)
Entry rule: numbers only, all in µg/mL.

{"columns": ["molecule", "MIC99 (µg/mL)"],
 "data": [
  ["Cl.Cl.O=C(NCCCNCCCCCNCCCNC(=O)NCc1ccccc1)NCc1ccccc1", 213],
  ["NC[C@H]1O[C@H](O[C@H]2[C@H](O)[C@@H](O[C@H]3O[C@H](CO)[C@@H](O)[C@H](N)[C@H]3O)[C@H](N)C[C@@H]2N)[C@H](O)[C@@H](O)[C@@H]1O [KANAMYCIN]", 32],
  ["CCn1cc(C(=O)O)c(=O)c2cc(F)c(N3CCNCC3)cc21 [NORFLOXACIN]", 0.5],
  ["Cl.Cl.S=C(NCCCNCCCCCNCCCNC(=S)NC(c1ccccc1)c1ccccc1)NC(c1ccccc1)c1ccccc1", 13.3],
  ["CC1(C)S[C@@H]2[C@H](NC(=O)[C@H](N)c3ccccc3)C(=O)N2[C@H]1C(=O)O [AMPICILLIN]", 128]
]}

Here is another molecule to look at.
Can you share its MIC99? I mean this molecule: "Cl.Cl.O=C(NCCCNCCCCCNCCCNC(=O)NC(c1ccccc1)c1ccccc1)NC(c1ccccc1)c1ccccc1"
13.3

* * *

test system: Staphylococcus aureus; assay: Bactericidal activity against Staphylococcus aureus RN4220 ATCC 35556 in stationary-phase assessed as reduction in bacterial burden at 4 times MIC99 after 2 to 6 hrs by time-kill assay; type: functional, organism-based
Activity calls are given as the source filed them. No cut-off for these calls is given here.
Return exactly one item of active, inactive

Examples with answers:
{"columns": ["compound_string", "classification"],
 "data": [
  ["NC[C@H]1O[C@H](O[C@H]2[C@H](O)[C@@H](O[C@H]3O[C@H](CO)[C@@H](O)[C@H](N)[C@H]3O)[C@H](N)C[C@@H]2N)[C@H](O)[C@@H](O)[C@@H]1O", "inactive"],
  ["Cl.Cl.S=C(NCCCNCCCCCNCCCNC(=S)NCC(c1ccccc1)c1ccccc1)NCC(c1ccccc1)c1ccccc1", "active"],
  ["CCn1cc(C(=O)O)c(=O)c2cc(F)c(N3CCNCC3)cc21", "inactive"]
]}

Please find the next compound below.
Fill in: this test's call for "CC1(C)S[C@@H]2[C@H](NC(=O)[C@H](N)c3ccccc3)C(=O)N2[C@H]1C(=O)O" is ___
inactive

* * *

test system: Pseudomonas aeruginosa; assay: Antibacterial activity against Pseudomonas aeruginosa PAO1 ATCC 47085 incubated overnight by microbroth dilution method; assay type: functional
measurement_label: MIC99 (µg/mL)
Entry rule: numbers only, all in µg/mL.

Example entries and their recorded answers appear below.
{"columns": ["compound_string", "display_unit", "recorded_value"],
 "data": [
  ["Cl.Cl.O=C(NCCCNCCCCCNCCCNC(=O)NCCC(c1ccccc1)c1ccccc1)NCCC(c1ccccc1)c1ccccc1", "µg/mL", 26.7],
  ["Cl.Cl.S=C(NCCCNCCCCCNCCCNC(=S)NCCC(c1ccccc1)c1ccccc1)NCCC(c1ccccc1)c1ccccc1", "µg/mL", 32],
  ["O=C(NCCCNCCCCNCCCNC(=O)NCC(c1ccccc1)c1ccccc1)NCC(c1ccccc1)c1ccccc1", "µg/mL", 18.6]
]}

Here is another compound to look at.
Can you share its MIC99? I mean this compound: "Cl.Cl.S=C(NCCCNCCCCCNCCCNC(=S)NCC(c1ccccc1)c1ccccc1)NCC(c1ccccc1)c1ccccc1"
8

* * *

test system: Pseudomonas aeruginosa; assay: Antibacterial activity against Pseudomonas aeruginosa PAO1 ATCC 47085 incubated overnight by microbroth dilution method; format: functional
measurement_label: MIC99

Example entries and their recorded answers appear below.
{"columns": ["compound", "MIC99"],
 "data": [
  ["O=C(NCCCCCCCCCCCNC(=O)NCCC(c1ccccc1)c1ccccc1)NCCC(c1ccccc1)c1ccccc1", "> 256 µg/mL"],
  ["NCCCCNCCCN [SPERMIDINE]", "> 512 µg/mL"]
]}

Here is another compound to look at.
Can you share its MIC99? I mean this compound: "S=C(NCCCCCCCCCCCCNC(=S)NC(c1ccccc1)c1ccccc1)NC(c1ccccc1)c1ccccc1"
> 256 µg/mL
